Target Or Test System: interaction between p53 and MDM2 proteins (Homo sapiens)
Test Details: HTRF assay of inhibition of p53-MDM2 interaction
Measurement Context: GST-MDM2 and biotinylated p53 peptide, bsa: 0.02%
Recorded measurements of IC50, one per entry
Quick note: give the figure in nM, leave out the unit.

>  <Compound>
COc1cc(C(=O)O)ccc1NC(=O)[C@@H]1N[C@@H](CC(C)(C)C)[C@@]2(C(=O)Nc3ccc(Cl)nc32)[C@H]1c1cccc(Cl)c1F (racemic) [Example 47]

>  <Unit Descriptor>
nM

>  <IC50>
34.5

$$$$
>  <Compound>
COC(=O)c1ccc(NC(=O)[C@@H]2N[C@@H](CC(C)(C)C)[C@]3(C(=O)Nc4nc(Cl)ncc43)[C@H]2c2cccc(Cl)c2F)c(OC)c1 (racemic) [Example 91]

>  <Unit Descriptor>
nM

>  <IC50>
10.7

$$$$
>  <Compound>
COc1cc(C(N)=O)ccc1NC(=O)[C@@H]1N[C@@H](CC(C)(C)C)[C@@]2(C(=O)Nc3cc(C)ncc32)[C@H]1c1cccc(Cl)c1F (racemic) [Example 121]

>  <Unit Descriptor>
nM

>  <IC50>
11.8

$$$$
>  <Compound>
COC(=O)c1ccc(NC(=O)[C@@H]2N[C@@H](CC(C)(C)C)[C@@]3(C(=O)Nc4nc(Cl)ccc43)[C@H]2c2cccc(Cl)c2F)c(OC)c1 (racemic) [Example 35]

>  <Unit Descriptor>
nM

>  <IC50>
14.5

$$$$

Next up:
GET /values?readout=IC50&item= COc1cc(OCCO)ccc1NC(=O)[C@@H]1N[C@@H](CC(C)(C)C)[C@@]2(C(=O)Nc3cc(Cl)ncc32)[C@H]1c1cccc(Cl)c1F (racemic) [Example 117]
14

---

Target Or Test System: interaction between p53 and MDM2 proteins (Homo sapiens, UniProt Q00987)
Sequence (Q00987 whole entry): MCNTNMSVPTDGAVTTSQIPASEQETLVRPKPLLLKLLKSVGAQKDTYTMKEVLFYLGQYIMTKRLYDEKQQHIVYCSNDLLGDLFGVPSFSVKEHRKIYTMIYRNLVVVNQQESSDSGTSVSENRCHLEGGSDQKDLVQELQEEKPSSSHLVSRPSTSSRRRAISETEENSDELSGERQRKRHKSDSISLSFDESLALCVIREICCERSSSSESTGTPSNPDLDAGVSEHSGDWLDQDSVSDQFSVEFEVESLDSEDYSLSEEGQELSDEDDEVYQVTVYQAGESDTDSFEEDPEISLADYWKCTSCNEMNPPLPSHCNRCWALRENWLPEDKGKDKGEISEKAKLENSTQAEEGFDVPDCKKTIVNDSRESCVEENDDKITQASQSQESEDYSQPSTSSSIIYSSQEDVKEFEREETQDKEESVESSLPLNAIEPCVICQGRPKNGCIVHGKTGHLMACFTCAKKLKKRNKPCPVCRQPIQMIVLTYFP
Test Details: HTRF assay of inhibition of p53-MDM2 interaction
Measurement Context: GST-MDM2 and biotinylated p53 peptide, bsa: 0.02%
Readout Type: log10 of IC50 (log10 of the value in nM)
// stored as log10 of IC50 expressed in nM

>  <Molecule>
COC(=O)c1ccc(NC(=O)[C@@H]2N[C@@H](CC(C)(C)C)[C@@]3(C(=O)Nc4ccncc43)[C@H]2c2cccc(Cl)c2F)c(OC)c1 (racemic) [Example 6]

>  <Readout Type>
log10 of IC50

>  <Reported Result>
1.51

$$$$
>  <Molecule>
COC(=O)c1ccc(NC(=O)[C@@H]2N[C@@H](CC(C)(C)C)[C@@]3(C(=O)Nc4c(Cl)ccnc43)[C@H]2c2cccc(Cl)c2F)c(OC)c1 (racemic) [Example 123]

>  <Readout Type>
log10 of IC50

>  <Reported Result>
3.80

$$$$
>  <Molecule>
COc1cc(C(N)=O)ccc1NC(=O)[C@@H]1N[C@@H](CC(C)(C)C)[C@@]2(C(=O)Nc3cc(Cl)cnc32)[C@H]1c1cccc(Cl)c1 (racemic) [Example 63]

>  <Readout Type>
log10 of IC50

>  <Reported Result>
1.16

$$$$
>  <Molecule>
COC(=O)c1ccc(NC(=O)[C@@H]2N[C@@H](CC(C)(C)C)[C@@]3(C(=O)Nc4cc(Cl)sc43)[C@H]2c2cccc(Cl)c2F)c(OC)c1 (racemic) [Example 96]

>  <Readout Type>
log10 of IC50

>  <Reported Result>
1.36

$$$$
>  <Molecule>
COc1cc2c(cn1)[C@@]1(C(=O)N2)[C@H](CC(C)(C)C)N[C@@H](C(=O)Nc2ccc(C(N)=O)cc2OC)[C@@H]1c1cccc(Cl)c1F (racemic) [Example 115]

>  <Readout Type>
log10 of IC50

>  <Reported Result>
2.10

$$$$

// log10 of IC50 lookup, key: COC(=O)c1ccc(NC(=O)[C@@H]2N[C@@H](CC(C)(C)C)[C@@]3(C(=O)Nc4cc(F)cnc43)[C@H]2c2cccc(Cl)c2F)c(OC)c1 (racemic) [Example 83]
1.29

Item under review: COc1cc(OCCOC(C)=O)ccc1NC(=O)[C@@H]1N[C@@H](CC(C)(C)C)[C@@]2(C(=O)Nc3cc(Cl)ncc32)[C@H]1c1cccc(Cl)c1F (racemic) [Example 116] . Reported log10 of IC50?
1.08

Any idea what its log10 of IC50 is? The molecule is COc1cc(OCCO)ccc1NC(=O)[C@@H]1N[C@@H](CC(C)(C)C)[C@@]2(C(=O)Nc3nc(Cl)ncc32)[C@H]1c1cccc(Cl)c1F (racemic) [Example 89]
1.07

Return reported log10 of IC50; argument: COC(=O)c1ccc(NC(=O)[C@@H]2N[C@@H](CC(C)(C)C)[C@@]3(C(=O)Nc4cc(OC)ncc43)[C@H]2c2cccc(Cl)c2F)c(OC)c1 (racemic) [Example 110]
1.13

Data request, read-out log10 of IC50, for COC(=O)c1ccc(NC(=O)[C@@H]2N[C@@H](CC(C)(C)C)[C@@]3(C(=O)Nc4cc(C)ncc43)[C@H]2c2cccc(Cl)c2F)c(OC)c1 (racemic) [Example 119]
1.06

Dear colleague, I am looking for the recorded log10 of IC50 of the following molecule: COc1cc(C(N)=O)ccc1NC(=O)[C@@H]1N[C@@H](CC(C)(C)C)[C@@]2(C(=O)Nc3cc(F)cnc32)[C@H]1c1cccc(Cl)c1F (racemic) [Example 86]
1.27

# input molecule: COc1cc(OCCO)ccc1NC(=O)[C@@H]1N[C@@H](CC(C)(C)C)[C@@]2(C(=O)Nc3cc(Cl)cnc32)[C@H]1c1cccc(Cl)c1F [Example 75] ; wanted: its log10 of IC50
0.81

For the molecule COc1cc(C(=O)O)ccc1NC(=O)[C@@H]1N[C@@H](CC(C)(C)C)[C@@]2(C(=O)Nc3cc(C)ncc32)[C@H]1c1cccc(Cl)c1F (racemic) [Example 120] , what log10 of IC50 is on record?
1.08

# lookup: log10 of IC50 of COc1cc2c(cn1)[C@@]1(C(=O)N2)[C@H](CC(C)(C)C)N[C@@H](C(=O)Nc2ccc(C(=O)O)cc2OC)[C@@H]1c1cccc(Cl)c1F (racemic) [Example 111]
0.85

Reported log10 of IC50 for COc1cc(C(N)=O)ccc1NC(=O)[C@@H]1N[C@@H](CC(C)(C)C)[C@@]2(C(=O)Nc3cc(Cl)cnc32)[C@H]1c1cccc(Br)c1F (racemic) [Example 69] : what is it?
1.11

Can you look up the measured log10 of IC50 of COc1cc(C(=O)O)ccc1NC(=O)[C@@H]1N[C@@H](CC(C)(C)C)[C@@]2(C(=O)Nc3c(Cl)ccnc32)[C@H]1c1cccc(Cl)c1F (racemic) [Example 124] for me?
3.00

Quick check: log10 of IC50 of CC(C)(C)C[C@@H]1N[C@@H](C(=O)Nc2ccc(C(=O)O)cc2)[C@H](c2cccc(Cl)c2F)[C@]12C(=O)Nc1cc(Cl)ncc12 (racemic) [Example 28] ?
1.02

I would be grateful if you could share the reported log10 of IC50 for COC(=O)c1ccc(NC(=O)[C@@H]2N[C@@H](CC(C)(C)C)[C@@]3(C(=O)Nc4ncccc43)[C@H]2c2cccc(Cl)c2F)c(OC)c1 (racemic) [Example 13] .
1.48

Param item = COC(=O)c1ccc(NC(=O)[C@@H]2N[C@@H](CC(C)(C)C)[C@@]3(C(=O)Nc4cc(Cl)cnc43)[C@H]2c2cccc(Br)c2F)c(OC)c1 (racemic) [Example 66] ; retrieve measured log10 of IC50.
3.26
